In this section, each of the molecules is paired with its reported IC50.
- MEASURED_TARGET: human EP1 receptor (Homo sapiens, UniProt P34995)
- Construct: expressed in transfected cells
- Sequence (P34995 1-402): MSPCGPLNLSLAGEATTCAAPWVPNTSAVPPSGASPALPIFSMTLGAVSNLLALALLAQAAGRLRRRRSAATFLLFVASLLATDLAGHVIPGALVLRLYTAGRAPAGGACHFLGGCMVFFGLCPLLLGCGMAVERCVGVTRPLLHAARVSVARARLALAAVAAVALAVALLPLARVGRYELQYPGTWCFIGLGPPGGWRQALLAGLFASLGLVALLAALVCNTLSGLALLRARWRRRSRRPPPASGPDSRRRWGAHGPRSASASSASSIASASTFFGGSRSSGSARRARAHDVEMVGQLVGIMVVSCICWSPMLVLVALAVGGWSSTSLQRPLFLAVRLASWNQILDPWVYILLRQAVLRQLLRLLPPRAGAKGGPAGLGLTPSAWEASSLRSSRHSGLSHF
- ASSAY_INFO: Antagonist activity using cells expressing human EP1 receptor (SRE-luciferase reporter activity, PGE2 10 nM)
- Type: cell-based
- REPORTED_CONDITIONS: HEK293 cells stably expressing human EP1 receptor, 6 hours, read-out: IC50 value in the measurement of antagonist activity using human EP1 receptor expressing cells

Below, each entry is followed by its recorded IC50 result.
In [3]: df
Out[3]:
                                   molecule                           measured_target  reported_endpoint  measured_value
0  Cc1ccccc1-c1nn(-c2nc(C(=O)O)cs2)c2ccccc12 [Exp.9]  human EP1 receptor (Homo sapiens, UniProt P34995)               IC50         ≤ 20 nM
1  O=C(O)c1csc(Cn2nc(-c3ccccc3)c3ccc(C(F)(F)F)cc32)n1 [Exp.104]  human EP1 receptor (Homo sapiens, UniProt P34995)               IC50         ≤ 20 nM

## Task Give IC50 for O=C(O)c1csc(-n2nc(-c3ccccc3)c3ncc(C(F)(F)F)cc32)n1 [Exp.164] tested on human EP1 receptor (Homo sapiens, UniProt P34995).
## Result ≤ 20 nM

## Task Give IC50 for O=C(O)c1csc(-n2nc(-c3ccccc3)c3ccc(C(F)(F)F)nc32)n1 [Exp.106] tested on human EP1 receptor (Homo sapiens, UniProt P34995).
## Result ≤ 20 nM

## Task Give IC50 for O=C(O)c1csc(-n2nc(-c3ccccc3)c3ccc(SCc4ccccc4)nc32)n1 [Exp. 176] tested on human EP1 receptor (Homo sapiens, UniProt P34995).
## Result 100 to 500 nM

## Task Give IC50 for O=C(O)c1csc(-n2nc(-c3cccs3)c3ccccc32)n1 [Exp. 51] tested on human EP1 receptor (Homo sapiens, UniProt P34995).
## Result 20 to 100 nM

## Task Give IC50 for O=C(O)c1csc(-n2nc(-c3ccccc3)c3ccc(NCc4ccccn4)cc32)n1 [Exp. 148] tested on human EP1 receptor (Homo sapiens, UniProt P34995).
## Result 20 to 100 nM

## Task Give IC50 for C/C=C/c1ccc2c(-c3ccccc3)nn(-c3nc(C(=O)O)cs3)c2c1 [Exp. 159] tested on human EP1 receptor (Homo sapiens, UniProt P34995).
## Result ≤ 20 nM

## Task Give IC50 for C=Cc1ccc2c(-c3ccccc3)nn(-c3nc(C(=O)O)cs3)c2c1 [Exp. 162] tested on human EP1 receptor (Homo sapiens, UniProt P34995).
## Result ≤ 20 nM

## Task Give IC50 for O=C(O)c1ccc2c(-c3ccccc3)nn(-c3nc(C(=O)O)cs3)c2c1 [Exp.119] tested on human EP1 receptor (Homo sapiens, UniProt P34995).
## Result ≤ 20 nM

## Task Give IC50 for O=C(O)c1csc(Cn2nc(-c3ccccc3)c3ccccc32)n1 [Exp.7] tested on human EP1 receptor (Homo sapiens, UniProt P34995).
## Result 20 to 100 nM

## Task Give IC50 for O=C(O)c1csc(-n2nc(-c3ccccc3)c3ccc(Sc4cccc(C(F)(F)F)c4)nc32)n1 [Exp.179] tested on human EP1 receptor (Homo sapiens, UniProt P34995).
## Result 20 to 100 nM

## Task Give IC50 for O=C(O)c1csc(-n2nc(-c3ccccc3)c3ccc(I)cc32)n1 [Exp. 158] tested on human EP1 receptor (Homo sapiens, UniProt P34995).
## Result ≤ 20 nM

## Task Give IC50 for O=C(O)c1csc(-n2nc(-c3ccccc3)c3ccc(Br)cc32)n1 [Exp. 157] tested on human EP1 receptor (Homo sapiens, UniProt P34995).
## Result ≤ 20 nM

## Task Give IC50 for CCC(C)S(=O)(=O)Nc1ccc2c(-c3ccccc3)nn(-c3nc(C(=O)O)cs3)c2c1 (stereo not drawn) [Exp. 142] tested on human EP1 receptor (Homo sapiens, UniProt P34995).
## Result 100 to 500 nM

## Task Give IC50 for O=C(O)c1csc(-n2nc(-c3ccccc3)c3ccc(N4CCC4)nc32)n1 [Exp. 167] tested on human EP1 receptor (Homo sapiens, UniProt P34995).
## Result 20 to 100 nM

## Task Give IC50 for O=C(O)c1csc(-n2nc(-c3ccccc3)c3ccc(NCc4cccc(F)c4)cc32)n1 [Exp. 146] tested on human EP1 receptor (Homo sapiens, UniProt P34995).
## Result 100 to 500 nM

## Task Give IC50 for O=C(O)c1csc(-n2nc(-c3ccccc3)c3ccc(NCc4ccccc4F)cc32)n1 [Exp. 145] tested on human EP1 receptor (Homo sapiens, UniProt P34995).
## Result 100 to 500 nM

Source listed as patent US7994202B2.
